The following compounds were reported with pKi values on Kappa-type opioid receptor (Homo sapiens, UniProt P41145) in different studies.
Sequence (P41145 whole entry): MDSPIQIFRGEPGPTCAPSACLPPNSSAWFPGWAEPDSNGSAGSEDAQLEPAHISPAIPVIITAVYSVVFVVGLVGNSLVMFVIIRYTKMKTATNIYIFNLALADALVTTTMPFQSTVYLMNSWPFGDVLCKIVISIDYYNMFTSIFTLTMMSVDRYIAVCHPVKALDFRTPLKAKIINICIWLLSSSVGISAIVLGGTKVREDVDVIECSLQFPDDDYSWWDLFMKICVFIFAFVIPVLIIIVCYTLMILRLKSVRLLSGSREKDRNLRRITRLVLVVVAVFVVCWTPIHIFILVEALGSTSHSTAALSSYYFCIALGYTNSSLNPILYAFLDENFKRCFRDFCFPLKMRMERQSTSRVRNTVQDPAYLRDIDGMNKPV
pKi: −log10 of the molar value.
Kind request: treat 6 as inclusive, so pKi at 6 or higher is TRUE, anything lower is FALSE.

Hi team, for `CN(CCCNC(=O)c1ccco1)Cc1ccccc1` , is the recorded pKi at or above 6?
FALSE

Hi team, for COC(=O)C(Cc1cccc(OC)c1I)NC(=O)CN(C)Cc1ccccc1 (configuration not stated) , is the recorded pKi at or above 6?
TRUE

Hi team, for `COc1ccc(NC(=O)N2CCN(c3ccc(Cl)cc3)CC2)cc1N1CCN(C)CC1` , is the recorded pKi at or above 6?
FALSE

Hi team, for `NS(=O)(=O)N1CCC(c2ccccc2)(c2nccn2Cc2ccccc2)CC1` , is the recorded pKi at or above 6?
FALSE

Hi team, for `C[C@H]1CN(C(=O)c2ccc(-c3ccccc3F)cc2)CCN1C(=O)c1ccc2cc[nH]c2c1` , is the recorded pKi at or above 6?
FALSE

Hi team, for `N#Cc1cc(F)cc(C#Cc2csc(CF)n2)c1` , is the recorded pKi at or above 6?
FALSE

Hi team, for COc1cccc(CC2NC(=O)[C@@H]3CCCN3C2=O)c1I (some centres not stated) , is the recorded pKi at or above 6?
FALSE

Hi team, for `O=C(Nc1ccccc1)N1CCC(c2ccccc2)(c2nccn2Cc2ccccc2)CC1` , is the recorded pKi at or above 6?
TRUE

Hi team, for COC(=O)C(Cc1cc(OC)cc(OC)c1I)NC(=O)CNCc1ccccc1 (configuration not stated) , is the recorded pKi at or above 6?
FALSE

Hi team, for C[N+]1(CC2c3cc(F)ccc3CCN2C(=O)C2CC(=O)c3ccc(Cl)cc32)CCCC1 (configuration not stated) , is the recorded pKi at or above 6?
TRUE

Hi team, for `C[C@H]1CN(C(=O)c2ccc(-c3ccccc3C(F)(F)F)cc2)CCN1C(=O)c1ccc2cc[nH]c2c1` , is the recorded pKi at or above 6?
FALSE

Hi team, for `CCOc1cc(N2C3COCC2CN(C(=O)[C@H]2C[C@H](O)CN2c2ccc(Cl)cc2)C3)ccc1Cl` , is the recorded pKi at or above 6?
FALSE

Hi team, for `COc1cccc(N2CCN(CCCCn3ncc(=O)n(C)c3=O)CC2)c1` , is the recorded pKi at or above 6?
FALSE

Hi team, for COc1cccc(CC2NC(=O)CN(CCCc3ccccc3)C2=O)c1I (configuration not stated) , is the recorded pKi at or above 6?
FALSE

---

The following compounds were reported with Ki values on Kappa-type opioid receptor (Homo sapiens, UniProt P41145) in different studies.

# `CN1CCc2c(c3cccc4c3n2Cc2ccccc2C4)C1` with Kappa-type opioid receptor (Homo sapiens, UniProt P41145): Ki is > 10 µM

# `COc1ccc(NC(=O)N2CCN(c3ccc(F)cc3)CC2)cc1N1CCN(C)CC1` with Kappa-type opioid receptor (Homo sapiens, UniProt P41145): Ki is > 10 µM

# CC(C)=CC(O)C/C(C)=C/COc1c2ccoc2cc2oc(=O)ccc12 (centres undefined) with Kappa-type opioid receptor (Homo sapiens, UniProt P41145): Ki is > 10 µM

# COC(=O)[C@@H]1C[C@@H](Br)C2=C3[C@@](C)(C[C@H](c4ccoc4)O2)C(C(=O)O)CC[C@]31C (some centres undefined) with Kappa-type opioid receptor (Homo sapiens, UniProt P41145): Ki is > 1 µM

# `CN(CCCNC(=O)c1ccc2ccccc2c1)Cc1ccccc1` with Kappa-type opioid receptor (Homo sapiens, UniProt P41145): Ki is > 10 µM

# `CNc1cc(-c2csc(N(C)C(=O)c3ccc(F)cc3)n2)ncn1` with Kappa-type opioid receptor (Homo sapiens, UniProt P41145): Ki is > 10 µM

# `COc1cccc(-c2ccc(C(=O)N3CCN(C(=O)c4ccc5cc[nH]c5c4)[C@@H](C)C3)cc2)c1` with Kappa-type opioid receptor (Homo sapiens, UniProt P41145): Ki is > 10 µM

# `CCCCOc1ccc(-c2nn3c(C)cc(C)nc3c2CC(=O)N(CC)CC)cc1` with Kappa-type opioid receptor (Homo sapiens, UniProt P41145): Ki is > 10 µM

# `Fc1ccc2[nH]c(CN3CCN(c4ccccn4)CC3)cc2c1` with Kappa-type opioid receptor (Homo sapiens, UniProt P41145): Ki is 0.3 µM

# `N[C@H](c1cccc(Cl)c1)[C@@H]1CCN1C(c1ccc(Cl)cc1)c1ccc(Cl)cc1` with Kappa-type opioid receptor (Homo sapiens, UniProt P41145): Ki is 3.25 µM

# `CN(C(=O)/C=C/c1ccoc1)[C@@H]1CC[C@@]2(O)[C@H]3Cc4ccc(O)c5c4[C@@]2(CN3CC2CC2)[C@H]1O5` with Kappa-type opioid receptor (Homo sapiens, UniProt P41145): Ki is > 5 µM

# `CCCN1CC[C@H]2c3cc4ccccc4nc3[C@H](CC)[C@H]3CCC[C@@H]1[C@@H]32` with Kappa-type opioid receptor (Homo sapiens, UniProt P41145): Ki is 0.493 µM

# CCCCC(c1ccccc1)N1CC[C@H]1[C@H](N)c1cccc(Cl)c1 (some centres undefined) with Kappa-type opioid receptor (Homo sapiens, UniProt P41145): Ki is 3.43 µM

# `COc1cccc(-c2ccc(C(=O)N3CCN(C(=O)c4ccc5cc[nH]c5c4)[C@H](C)C3)cc2)c1` with Kappa-type opioid receptor (Homo sapiens, UniProt P41145): Ki is > 10 µM

---

The following compounds were reported with Ki values on Kappa-type opioid receptor (Homo sapiens, UniProt P41145) in different studies.

# `COc1ccc(C[C@H]2C(=O)C[C@@H]3CCN(C)[C@@H]4CCC[C@H]2[C@@H]34)cc1` with Kappa-type opioid receptor (Homo sapiens, UniProt P41145): Ki is > 10 µM

# `COc1ccc(NC(=O)N2CCN(c3ccccc3Cl)CC2)cc1N1CCN(C)CC1` with Kappa-type opioid receptor (Homo sapiens, UniProt P41145): Ki is > 10 µM

# Cc1cc(C)cc(C2CCCN2Cc2ccc(Oc3ccc(C(N)=O)cc3F)cc2)c1 (racemic) with Kappa-type opioid receptor (Homo sapiens, UniProt P41145): Ki is 0.014 µM

# `CCc1ccc(N2CCN(Cc3c[nH]c4ncccc34)CC2)cc1` with Kappa-type opioid receptor (Homo sapiens, UniProt P41145): Ki is > 10 µM

# `NC(=O)c1ccc(Oc2ccc3c(c2)CCCN(CCCN2CCOCC2)C3)nc1` with Kappa-type opioid receptor (Homo sapiens, UniProt P41145): Ki is 3.25 µM

# `NC(=O)c1ccc(Oc2ccc3c(c2)CCN(Cc2ccccc2)CC3)nc1` with Kappa-type opioid receptor (Homo sapiens, UniProt P41145): Ki is 2.87 µM

# COc1cc(CN[C@H]2C3C4CC5C6C4CC3C6C52)cc(OC)c1OC (stereo not given in full) with Kappa-type opioid receptor (Homo sapiens, UniProt P41145): Ki is 1.98 µM

# `CC(=O)N[C@H](Cc1c[nH]c2ccc(C)cc12)C(=O)N[C@@H](Cc1ccccc1)C(=O)NCC(N)=O` with Kappa-type opioid receptor (Homo sapiens, UniProt P41145): Ki is > 100 µM

# `N[C@@H](c1cccc(F)c1)[C@@H]1CCN1C(c1ccccc1)c1ccccc1` with Kappa-type opioid receptor (Homo sapiens, UniProt P41145): Ki is 0.997 µM

# COC(=O)C(Cc1cccc(OC)c1I)NC(=O)CN(C)C(=O)OC(C)(C)C (stereo not given) with Kappa-type opioid receptor (Homo sapiens, UniProt P41145): Ki is > 10 µM

# `N[C@H](c1cccc(Cl)c1)[C@@H]1CCN1C(c1cccc(F)c1)c1cccc(F)c1` with Kappa-type opioid receptor (Homo sapiens, UniProt P41145): Ki is 3.53 µM

# CCCN1CCN(c2ccc3c(c2)C(N(C)C(=O)OCc2ccccc2)CCC3)CC1 (stereo not given) with Kappa-type opioid receptor (Homo sapiens, UniProt P41145): Ki is > 10 µM

# COC(=O)C(Cc1cccc(OC)c1I)NC(=O)[C@@H](N)Cc1ccccc1 (mixture of isomers) with Kappa-type opioid receptor (Homo sapiens, UniProt P41145): Ki is 2.17 µM

# `c1cncc([C@@H]2CN3CCC[C@@H]3c3cc(OCCCN4CCCCC4)ccc32)c1` with Kappa-type opioid receptor (Homo sapiens, UniProt P41145): Ki is 0.074 µM

# `CC[C@H]1C(=O)C[C@@H]2CCN(S(=O)(=O)c3ccc(C)cc3)[C@@H]3CCC[C@H]1[C@@H]23` with Kappa-type opioid receptor (Homo sapiens, UniProt P41145): Ki is > 10 µM

---

The following compounds were reported with pKi values on Kappa-type opioid receptor (Homo sapiens) in different studies.
On this scale, pKi is minus log10 of a concentration expressed in M (mol/L).

# CN(CCc1ccccn1)[C@H]1C2C3CC4C5C3CC2C5C41 (stereo partly drawn) with Kappa-type opioid receptor (Homo sapiens): pKi is 6.03

# `COc1ccccc1NC(=O)N1CCC(c2ccccc2)(c2nccn2Cc2ccccc2)CC1` with Kappa-type opioid receptor (Homo sapiens): pKi is 6.11

# COC(=O)C(Cc1cccc(OC)c1I)NC(=O)CNCCc1ccccc1 (stereo not drawn) with Kappa-type opioid receptor (Homo sapiens): pKi is 6.10
